# ASSAY OVERVIEW: Brain to plasma permeability coefficient, Kp of compound in Sprague-Dawley rat at 0.20 to 0.25 mg/kg administered as iv cassette dose measured at 0.25 hrs post dose
# Type: ADME, organism-based
# CONDITION PARAMETERS: brain, 0.25 h
RESULT TYPE: Kp

INSERT INTO assay_data (compound, result) VALUES
  ('O=C(N[C@H]1CCCC[C@@H]1O)C1CN(Cc2ccc(-n3cccn3)cc2)c2c(F)cccc2O1 (stereo not given in full)', '0.3 to 0.4'),
  ('O=C(N[C@H]1CCCC[C@@H]1O)C1CN(Cc2ccc(-n3cccn3)cc2)c2cccc(F)c2O1 (stereo not given in full)', '0.3 to 0.4'),
  ('O=C(N[C@H]1CCCC[C@@H]1O)C1CN(Cc2ccc(-n3cccn3)cc2)c2ccc(F)cc2O1 (stereo not given in full)', '0.3 to 0.4'),
  ('O=C(N[C@H]1CCCC[C@@H]1O)C1CN(Cc2ccc(-n3cccn3)cc2)c2cc(F)ccc2O1 (stereo not given in full)', '0.3 to 0.4'),
  ('O=C(N[C@H]1CCCC[C@@H]1O)C1CN(Cc2ccc(-n3cccn3)cc2)c2ccccc2O1 (mixture of isomers)', 0.17);

From: ChEMBL document CHEMBL4118174
